Provenance of the data: patent US20250355001A1

Biological target: T1, hT40 (T441, SEQ ID NO: 1) (Homo sapiens, UniProt P10636)
T1 construct: Full length tau (hT40)
T1 sequence (P10636 1-441 isoform P10636-8): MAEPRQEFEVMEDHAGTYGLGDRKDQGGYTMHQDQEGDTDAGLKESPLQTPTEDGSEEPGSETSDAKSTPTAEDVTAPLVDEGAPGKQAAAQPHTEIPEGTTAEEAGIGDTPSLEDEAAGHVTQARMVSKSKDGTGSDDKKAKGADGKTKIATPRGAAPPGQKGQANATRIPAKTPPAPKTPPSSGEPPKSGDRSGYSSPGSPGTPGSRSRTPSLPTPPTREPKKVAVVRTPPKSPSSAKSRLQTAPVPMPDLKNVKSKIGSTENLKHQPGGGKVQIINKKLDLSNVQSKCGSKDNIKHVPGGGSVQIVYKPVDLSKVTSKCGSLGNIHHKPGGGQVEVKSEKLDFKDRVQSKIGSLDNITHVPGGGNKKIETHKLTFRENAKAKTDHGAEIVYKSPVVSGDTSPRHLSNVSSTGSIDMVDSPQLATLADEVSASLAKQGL
Test: Biacore X100 SPR kinetics of scAbs for hT40
Assay type: binding
Conditions: Table 23; scAb captured, T441 (hT40) analyte; 1:1 model
Protocol: Surface plasmon resonance (SPR) is widely regarded as the gold standard for real time measurement of protein-protein interactions such as antibody binding. […] The single cycle kinetics protocol was similar and utilised the same level of scAb capture. […] Binding responses were analysed in Biacore X100 evaluation software and data fitted to a 1:1 binding model to obtain kinetic and affinity characterisation.
result_type: ka (M⁻¹ s⁻¹)
Express it in M⁻¹ s⁻¹; write the number only.

What does the record list as ka for S1D12: sheep-derived anti-tau core clone; scFv SEQ ID NO: 32, VH 443, VL 444 (protein, S1D12 amino acid sequence) scFv: QVQLQESGPSLVKPSQTLSLTCTVSGFSLNNNAVGWVRQAPGKVPESLVGCSSDGTCYYNSALKSRLDITRDTSKNQISLSLSSVTTDDAAVYYCTRGHYSIYGYDYLGTIDYWGPGLLVTVSSEGKSSGASGESKVDDQAVLTQPSSVSGSLGQRVSITCSGSSSNVGGGNSVGWYQHLPGSGLKTIIYDTNSRPSGVPDRFSGSRSGNTATLTINSLQAEDEGDYYCVTGDSTTHDDLVGSGTRLTVLG ?
1.252e+06

More entries:
What does the record list as ka for CC7: human-specific anti-tau clone, Table 10; SEQ ID NO: 365 (protein, CC7 amino acid sequence) scFv: QVQLQESGPSLVKPSQTLSLTCTVSGFSLTSNAVIWVRQAPGKAPEWVALIDVDGDAAYDPALKSRLSITRDTSKSQVSLSLRSVTTEDTAVYYCARDYGSWGYVSDIDYWGPGLLVTVSSEGKSSGASGESKVDDRVVRTQPSSVSGSLGQRVSITCSGSYITGSSVGWFQQVPGSGLKTVIYDNNDRPSGVPDRFSGSKSGDTATLTISSLQAEDEADYYCASYDTSNIGLFGSGTRLTVLG ?
295700

What does the record list as ka for CA4: anti-tau core clone, Table 10; SEQ ID NO: 368 (protein, CA4 amino acid sequence) scFv: QVQLQESGPSLVKPSQTLSLTCTVSGFSLTSYSVYWVRQAPGQALEWISIMYASGRVDYNPALKSRLSITRDTSKSQFSLSLSSVTTEDTAVYYCTRGIENWGPGLLVTVSSEGKSSGASGESKVDDDIQVTQSPSSLSASLTERVSITCRTSQSVNNYLSWYQQKPGQAPKLLIYYATRLYTDVPSRFSGSGSGTDYTLTITSLEADDTATYYCLQYDSTPLAFGGGTNVEIK ?
458100

What does the record list as ka for CE2: anti-tau core clone, Table 10; SEQ ID NO: 366 (protein, CE2/E1B8 amino acid sequence) scFv: QVQLQESGPSLVKPSQTLSLTCTVSGFSLTNYPVGWVRQAPGKALEWIGNIENDGSANYASALKSRLSITRDTSKNQVSLSLSSATTEDTAVYYCGREFGGSDGYTYFVDIDYWGPGLLVTVSSEGKSSGASGESKVDDQAVLTQPSSVSKSLGQSVSITCSGSSSNVGYGNYVSWFQQVPGSAPKILIYGATSRASGVPDRFSGSRSGNTATLTITSLQAEDEADYYCASYDGSSSGVFGSGTRLTVLG ?
213700
